Test system: thyroid hormone receptor (endogenous TRα and TRβ)
Design: species or system GH3-TRE-Luc (rat pituitary); GH3-TRE-Luc luciferase reporter, antagonist mode against 1 nM T3, loss of signal, qHTS
Conditions: antagonist mode, 1 nM T3, no GH3 cytotoxicity hit, read-out: Average AC50 (uM) GH3-TRE-Antag
readout.kind: AC50 (µM)
Report as a plain number; the unit µM is understood.

These solved cases illustrate the format of a correct answer.
                                   compound  result_number
0  C[C@]12CC[C@H]3[C@@H](CCC4=CC(=O)CC[C@@]43C)[C@@H]1CC[C@@H]2O [Testosterone]             59
1  CCCCC(CC)COP(=O)(Oc1ccccc1)Oc1ccccc1 (stereo not drawn) [2-Ethylhexyl diphenyl phosphate]           48.3

Continue with the compound presented below.
I would be grateful if you could share the reported AC50 for Cc1ccc2c(c1)[C@]13CCCC[C@@H]1[C@H](C2)N(C)CC3 [Dimemorfan phosphate] .
42.3

---

Test system: thyroid hormone receptor (endogenous TRα and TRβ)
Set-up: species or system GH3-TRE-Luc (rat pituitary); GH3-TRE-Luc luciferase reporter, antagonist mode against 1 nM T3, loss of signal, qHTS
Details: read-out: Average AC50 (uM) GH3-TRE-Antag; 24 h; antagonist
# note: boundary value 40 µM maps to class 0; AC50 below it maps to class 1

For orientation, consider the following solved cases.
>>> print(df.to_string())
                                   molecule      cat
0                CN(C)CCc1c[nH]c2cccc(O)c12  class 0
1             Nc1c(Cl)cc([N+](=O)[O-])cc1Cl  class 0
2       CN1C(=S)CN=C(c2ccccc2)c2cc(Cl)ccc21  class 0
3  O=c1oc2ccccc2c(O)c1C(CC(O)c1ccc(-c2ccc(Br)cc2)cc1)c1ccccc1 (centres unmarked)  class 0
4  CCCCCCCCC(=O)NCc1ccc(O)c(OC)c1 [Nonivamide]  class 0
5  O=C1Nc2ccc(Cl)cc2C(c2ccccc2)=NC1O (centres unmarked)  class 0

Does the reported AC50 of the following molecule sit strictly below 40 µM? "COc1cc(C[C@H](C)N)c(OC)cc1C"
class 0

Does the reported AC50 of the following molecule sit strictly below 40 µM? CSCCCN=C=S [3-(Methylthio)propyl isothiocyanate]
class 0

Does the reported AC50 of the following molecule sit strictly below 40 µM? "CCc1cc(OC)c(C[C@@H](C)N)cc1OC"
class 0

Does the reported AC50 of the following molecule sit strictly below 40 µM? CC[C@H]1C[C@H]2[C@@H]3CCC4=CC(=O)CC[C@@H]4[C@H]3CC[C@]2(C)[C@H]1O [Oxendolone]
class 1

Does the reported AC50 of the following molecule sit strictly below 40 µM? "O=C1CN=C(c2ccccc2)c2cc(Cl)ccc2N1"
class 1

---

Test system: thyroid hormone receptor (endogenous TRα and TRβ)
Set-up: species or system GH3-TRE-Luc (rat pituitary); GH3-TRE-Luc luciferase reporter, antagonist mode against 1 nM T3, loss of signal, qHTS
Details: antagonist mode, 1 nM T3, no GH3 cytotoxicity hit, read-out: Average AC50 (uM) GH3-TRE-Antag
# note: boundary value 50 µM maps to n; AC50 below it maps to y

Does the reported AC50 of the following compound sit strictly below 50 µM? CC(C)=CCN1CC[C@]2(C)c3cc(O)ccc3C[C@H]1[C@H]2C [(+)-Pentazocine succinate]
y

Does the reported AC50 of the following compound sit strictly below 50 µM? O=C(O)C(F)(F)C(F)(F)C(F)(F)C(F)(F)C(F)(F)C(F)(F)C(F)(F)F [Ammonium perfluorooctanoate]
n

Does the reported AC50 of the following compound sit strictly below 50 µM? COc1cc(CC(C)N)cc2c1OCO2 (stereo not drawn)
y

Does the reported AC50 of the following compound sit strictly below 50 µM? CCOP(=S)(OCC)Oc1cnc2ccccc2n1 [Quinalphos]
n

Does the reported AC50 of the following compound sit strictly below 50 µM? CCCSP(=O)(OCC)Oc1ccc(Br)cc1Cl (stereo not drawn) [Profenofos]
n

Does the reported AC50 of the following compound sit strictly below 50 µM? C[C@]12CCC(=O)C=C1CC[C@@H]1[C@@H]2CC[C@]2(C)C(=O)CC[C@@H]12 [4-Androstene-3,17-dione]
n

Does the reported AC50 of the following compound sit strictly below 50 µM? CN(C)c1ccc(C(c2ccccc2)c2ccc(N(C)C)cc2)cc1 [Leucomalachite green]
y

Does the reported AC50 of the following compound sit strictly below 50 µM? CCOP(=S)(OCC)Oc1ccc2c(C)c(Cl)c(=O)oc2c1 [Coumaphos]
n

---

Test system: thyroid hormone receptor (endogenous TRα and TRβ)
Parameters: species or system GH3-TRE-Luc (rat pituitary); GH3-TRE-Luc luciferase reporter, antagonist mode against 1 nM T3, loss of signal, qHTS
Conditions: antagonist mode, 1 nM T3, no GH3 cytotoxicity hit, read-out: Average AC50 (uM) GH3-TRE-Antag
Listing of entries alongside the reported AC50.

>>> print(df.to_string())
                                   compound                       experimental_target  readout_kind   result
0  CCN(CC)C(=O)[C@@H]1C=C2c3cccc4[nH]cc(c34)C[C@H]2N(C)C1 [Lysergide]  thyroid hormone receptor (endogenous TRα and TRβ)          AC50  > 50 µM

Give the reported AC50 for "Clc1ccccc1-c1ccccc1Cl" (system: thyroid hormone receptor (endogenous TRα and TRβ)).
> 100 µM

Give the reported AC50 for "Clc1nc(Cl)nc(Cl)n1" (system: thyroid hormone receptor (endogenous TRα and TRβ)).
> 90 µM

Give the reported AC50 for CC(C)=CC1C(C(=O)OCN2C(=O)C3=C(CCCC3)C2=O)C1(C)C (stereo not shown) (system: thyroid hormone receptor (endogenous TRα and TRβ)).
> 50 µM

---

Test system: thyroid hormone receptor (endogenous TRα and TRβ)
Set-up: species or system GH3-TRE-Luc (rat pituitary); GH3-TRE-Luc luciferase reporter, antagonist mode against 1 nM T3, loss of signal, qHTS
Settings: antagonist mode, 1 nM T3, no GH3 cytotoxicity hit, read-out: Average AC50 (uM) GH3-TRE-Antag
Where a name gives a salt, the structure may show the parent alone.
Listing of entries alongside the reported AC50.
Report as a plain number; the unit µM is understood.

>>> df
                                   molecule                       experimental_target  readout_kind  result_number
0  CCC(N)Cc1c[nH]c2ccccc12 (stereo not drawn) [Etryptamine acetate]  thyroid hormone receptor (endogenous TRα and TRβ)          AC50           43.6

I would be grateful if you could share the reported AC50 for OCC(c1ccc(Cl)cc1)c1ccc(Cl)cc1 [2,2-Bis(4-chlorophenyl)ethanol] .
46.2

I would be grateful if you could share the reported AC50 for Brc1ccc(Oc2cc(Br)c(Br)cc2Br)c(Br)c1 [2,2',4,4',5-Pentabromodiphenyl ether] .
39.4

I would be grateful if you could share the reported AC50 for O=C(Nc1ccccc1)Nc1cnns1 [Thidiazuron] .
76.7

I would be grateful if you could share the reported AC50 for CC(C)(N)Cc1ccc(Cl)cc1 [Chlorphentermine hydrochloride] .
39.2

---

Listing of entries alongside the reported AC50.
Tested on: thyroid hormone receptor (endogenous TRα and TRβ)
Parameters: species or system GH3-TRE-Luc (rat pituitary); GH3-TRE-Luc luciferase reporter, antagonist mode against 1 nM T3, loss of signal, qHTS
Details: antagonist mode, 1 nM T3, no GH3 cytotoxicity hit, read-out: Average AC50 (uM) GH3-TRE-Antag
Counter-ions that a name gives are not always drawn.

These solved cases illustrate the format of a correct answer.
>>> df
                                   compound                       experimental_target  readout_kind   result
0      CNC(=O)O/N=C(\SC)C(=O)N(C)C [Oxamyl]  thyroid hormone receptor (endogenous TRα and TRβ)          AC50  > 90 µM
1  CCOP(=S)(OCC)SC(CCl)N1C(=O)c2ccccc2C1=O (stereo not shown) [Dialifor]  thyroid hormone receptor (endogenous TRα and TRβ)          AC50  > 90 µM
2  CC(C)CC(N(C)C)C1(c2ccc(Cl)cc2)CCC1 (stereo not shown) [Sibutramine hydrochloride]  thyroid hormone receptor (endogenous TRα and TRβ)          AC50  29.8 µM
3  C[C@]12CC[C@H](O)C[C@H]1CC[C@@H]1[C@@H]2CC[C@]2(C)[C@@H](c3ccc(=O)oc3)C[C@H]3O[C@]132 [Bufogenin]  thyroid hormone receptor (endogenous TRα and TRβ)          AC50  39.2 µM
4  CNC(=O)Oc1ccccc1C(=O)Nc1ccccc1 [Anilamate]  thyroid hormone receptor (endogenous TRα and TRβ)          AC50  > 50 µM

I would be grateful if you could share the reported AC50 for COP(=S)(OC)SCN1C(=O)c2ccccc2C1=O [Phosmet] .
> 50 µM

I would be grateful if you could share the reported AC50 for C[C@]12CCC(=O)C[C@@H]1CC[C@@H]1[C@@H]2CC[C@]2(C)[C@@H](O)CC[C@@H]12 [5alpha-Dihydrotestosterone] .
27.8 µM

I would be grateful if you could share the reported AC50 for COP(=S)(OC)Oc1cc(Cl)c(Br)cc1Cl [Bromofos] .
65.8 µM

I would be grateful if you could share the reported AC50 for Nc1ccc2c(c1)Cc1ccccc1-2 [2-Aminofluorene] .
52 µM

I would be grateful if you could share the reported AC50 for C[C@]12C=CC(=O)C=C1CC[C@@H]1[C@@H]2CC[C@@]2(C)[C@H]1CC[C@]2(C)O [Methandrostenolone] .
34.4 µM
